Item-by-item account of shrunken log2 fold change
Tested on: Escherichia coli TOP10;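 note: peptides expressed intracellularly from a pBAD plasmid library in pooled LB shake-flask culture, induced with 0.3% L-arabinose, DNA abundance read by NGS, three biological replicates, DESeq2 with apeglm shrinkage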
Experiment description: shrunken log2 fold change of peptide-encoding DNA abundance (4.5 h post-induction vs induction); higher = less antimicrobial activity (less host growth inhibition)
Assay context: time post-induction: 4.5 h; library: site-saturation at positions 5, 18, 19, 20
Measure name: shrunken log2 fold change

>>> meas_value("RRIRPRPPRLPRPRPRPRFIPRP")
-0.184
>>> meas_value("RRIRQRPPRLPRPRPRPRLLPRP")
0.0504
>>> meas_value("RRIRPRPPRLPRPRPRPLVLPRP")
0.0114
>>> meas_value("RRIRVRPPRLPRPRPRPLQRPRP")
-0.0358
>>> meas_value("RRIRARPPRLPRPRPRPWVQPRP")
-0.0652
>>> meas_value("RRIRDRPPRLPRPRPRPGESPRP")
-0.00997
>>> meas_value("RRIRTRPPRLPRPRPRPYHRPRP")
0.0446
